Sourced from the supplement of paper PMC11061612

Tested on: HCC1500 (Breast Carcinoma);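 also: after 72 h of two-drug dosing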
Assay: Bliss excess, mean over the matrix (fraction); higher = more synergy
Parameter Bliss excess: see the listing below.
Output: the number by itself.

Some solved cases for reference:
# compound, targetOrTestSystem, Bliss excess
rows = [
    ("CN(CCO)CC[C@H](CSc1ccccc1)Nc1ccc(S(=O)(=O)NC(=O)c2ccc(N3CCC([C@@H](O)c4ccccc4-c4ccc(Cl)cc4)CC3)cc2)cc1S(=O)(=O)C(F)(F)F [AZD4320] + C[C@@H](Nc1cc(F)cc(F)c1)c1cc(C(=O)N(C)C)cc2c(=O)cc(N3CCOCC3)oc12 [AZD8186] (first compound max 1 µM, 7x7, partner max 3 µM)", "HCC1500 (Breast Carcinoma)", 0.016),
    ("CN(C)CCCOc1ccc(-c2ccc3ncc4c(c3c2)n(C2CCOCC2)c(=O)n4C)cn1 [AZD0156] + C=CCn1c(=O)c2cnc(Nc3ccc(N4CCN(C)CC4)cc3)nc2n1-c1cccc(C(C)(C)O)n1 [AZD1775] (first compound max 1 µM, partner max 1 µM)", "HCC1500 (Breast Carcinoma)", 0.0408),
    ("CS(=O)(=O)CCNCc1ccc(-c2ccc3ncnc(Nc4ccc(OCc5cccc(F)c5)c(Cl)c4)c3c2)o1 [Lapatinib] + C[C@@H](Oc1cc(-c2cnn(C3CCNCC3)c2)cnc1N)c1c(Cl)ccc(F)c1Cl [Crizotinib] (first compound max 10 µM, 7x7, partner max 10 µM)", "HCC1500 (Breast Carcinoma)", 0.0412),
    ("CC1(C)CCC(CN2CCN(c3ccc(C(=O)NS(=O)(=O)c4ccc(NCC5CCOCC5)c([N+](=O)[O-])c4)c(Oc4cnc5[nH]ccc5c4)c3)CC2)=C(c2ccc(Cl)cc2)C1 [Venetoclax] + C=CCn1c(=O)c2cnc(Nc3ccc(N4CCN(C)CC4)cc3)nc2n1-c1cccc(C(C)(C)O)n1 [AZD1775] (first compound max 1 µM, partner max 1 µM)", "HCC1500 (Breast Carcinoma)", 0.114),
]

input: Give Bliss excess for CN(C)CCCOc1ccc(-c2ccc3ncc4c(c3c2)n(C2CCOCC2)c(=O)n4C)cn1 [AZD0156] + CCN(CCO)CCCOc1ccc2c(Nc3cc(CC(=O)Nc4cccc(F)c4)[nH]n3)ncnc2c1 [AZD2811] (first compound max 1 µM, 7x7, partner max 1 µM)
output: -0.0563

input: Give Bliss excess for CN(CCO)CC[C@H](CSc1ccccc1)Nc1ccc(S(=O)(=O)NC(=O)c2ccc(N3CCC([C@@H](O)c4ccccc4-c4ccc(Cl)cc4)CC3)cc2)cc1S(=O)(=O)C(F)(F)F [AZD4320] + CCN(CCO)CCCOc1ccc2c(Nc3cc(CC(=O)Nc4cccc(F)c4)[nH]n3)ncnc2c1 [AZD2811] (first compound max 1 µM, 7x7, partner max 1 µM)
output: 0.0758

---

Tested on: SKN (Other Solid Carcinomas)
Assay: combination Emax (second highest fraction inhibited in the dose matrix, 72 h); higher = more inhibition; extreme values may be limits of the assay
quantityKind: combination Emax
Output: the number by itself.

Some solved cases for reference:
# compound, quantityKind, measurement
measured = [
    ("Cc1c2c(nn1C)CSCc1cc(n(C)n1)CSc1cc(c3ccccc3c1)OCCCc1c(C(=O)O)n(C)c3c-2c(Cl)ccc13 [AZD5991] + Nc1ccn([C@@H]2O[C@H](CO)[C@@H](O)C2(F)F)c(=O)n1 [Gemcitabine] (first compound max 1 µM, 7x7, partner max 0.3 µM)", "combination Emax", 0.582),
    ("CN(CCO)CC[C@H](CSc1ccccc1)Nc1ccc(S(=O)(=O)NC(=O)c2ccc(N3CCC([C@@H](O)c4ccccc4-c4ccc(Cl)cc4)CC3)cc2)cc1S(=O)(=O)C(F)(F)F [AZD4320] + CCN(CCO)CCCOc1ccc2c(Nc3cc(CC(=O)Nc4cccc(F)c4)[nH]n3)ncnc2c1 [AZD2811] (first compound max 1 µM, 7x7, partner max 1 µM)", "combination Emax", 0.613),
    ("CCN(CCO)CCCOc1ccc2c(Nc3cc(CC(=O)Nc4cccc(F)c4)[nH]n3)ncnc2c1 [AZD2811] + C[C@@H]1COCCN1C2=NC(=NC(=C2)C3(CC3)[S@](=N)(=O)C)C4=C5C=CNC5=NC=C4 [AZD6738] (first compound max 1 µM, 7x7, partner max 10 µM)", "combination Emax", 0.393),
    ("Cc1c2c(nn1C)CSCc1cc(n(C)n1)CSc1cc(c3ccccc3c1)OCCCc1c(C(=O)O)n(C)c3c-2c(Cl)ccc13 [AZD5991] + Cc1cc2ncnn2cc1Nc1ncc2c(n1)n(C1CCOCC1)c(=O)n2C [AZD7648] (first compound max 1 µM, 7x7, partner max 10 µM)", "combination Emax", 0.305),
    ("CC(=O)c1c(C)c2cnc(Nc3ccc(N4CCNCC4)cn3)nc2n(C2CCCC2)c1=O [Palbociclib] + Cn1cnc2c(F)c(Nc3ccc(Br)cc3Cl)c(C(=O)NOCCO)cc21 [Selumetinib] (first compound max 10 µM, 7x7, partner max 10 µM)", "combination Emax", 0.349),
    ("COc1nnc2ccc(N3CCC(c4ccc(OCCN5CCN(C)C(=O)[C@H]5C)cc4)CC3)nn12 [AZD5153] + C=CCn1c(=O)c2cnc(Nc3ccc(N4CCN(C)CC4)cc3)nc2n1-c1cccc(C(C)(C)O)n1 [AZD1775] (first compound max 1 µM, partner max 1 µM)", "combination Emax", 0.687),
]

// next item, combination Emax requested
input: Give combination Emax for CN(CCO)CC[C@H](CSc1ccccc1)Nc1ccc(S(=O)(=O)NC(=O)c2ccc(N3CCC([C@@H](O)c4ccccc4-c4ccc(Cl)cc4)CC3)cc2)cc1S(=O)(=O)C(F)(F)F [AZD4320] + Cc1cc2ncnn2cc1Nc1ncc2c(n1)n(C1CCOCC1)c(=O)n2C [AZD7648] (first compound max 1 µM, 7x7, partner max 10 µM)
output: 0.15
